target.or.test.system: Neuronal acetylcholine receptor; alpha4/beta2 (Homo sapiens, UniProt P17787+P43681)
Sequence (P17787 whole entry): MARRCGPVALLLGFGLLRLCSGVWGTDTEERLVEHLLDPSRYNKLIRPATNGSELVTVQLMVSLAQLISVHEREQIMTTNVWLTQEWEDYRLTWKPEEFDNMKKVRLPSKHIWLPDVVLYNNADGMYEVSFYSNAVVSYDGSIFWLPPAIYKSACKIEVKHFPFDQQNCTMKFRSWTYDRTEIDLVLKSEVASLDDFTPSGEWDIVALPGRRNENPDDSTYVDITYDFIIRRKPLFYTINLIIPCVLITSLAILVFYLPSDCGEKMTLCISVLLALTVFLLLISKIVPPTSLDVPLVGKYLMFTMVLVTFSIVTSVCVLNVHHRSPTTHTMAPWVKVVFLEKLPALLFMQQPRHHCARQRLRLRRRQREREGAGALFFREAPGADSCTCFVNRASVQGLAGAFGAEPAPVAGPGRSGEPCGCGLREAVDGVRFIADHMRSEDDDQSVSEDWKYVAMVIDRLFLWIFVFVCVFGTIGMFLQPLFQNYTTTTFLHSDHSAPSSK
Sequence (P43681 whole entry): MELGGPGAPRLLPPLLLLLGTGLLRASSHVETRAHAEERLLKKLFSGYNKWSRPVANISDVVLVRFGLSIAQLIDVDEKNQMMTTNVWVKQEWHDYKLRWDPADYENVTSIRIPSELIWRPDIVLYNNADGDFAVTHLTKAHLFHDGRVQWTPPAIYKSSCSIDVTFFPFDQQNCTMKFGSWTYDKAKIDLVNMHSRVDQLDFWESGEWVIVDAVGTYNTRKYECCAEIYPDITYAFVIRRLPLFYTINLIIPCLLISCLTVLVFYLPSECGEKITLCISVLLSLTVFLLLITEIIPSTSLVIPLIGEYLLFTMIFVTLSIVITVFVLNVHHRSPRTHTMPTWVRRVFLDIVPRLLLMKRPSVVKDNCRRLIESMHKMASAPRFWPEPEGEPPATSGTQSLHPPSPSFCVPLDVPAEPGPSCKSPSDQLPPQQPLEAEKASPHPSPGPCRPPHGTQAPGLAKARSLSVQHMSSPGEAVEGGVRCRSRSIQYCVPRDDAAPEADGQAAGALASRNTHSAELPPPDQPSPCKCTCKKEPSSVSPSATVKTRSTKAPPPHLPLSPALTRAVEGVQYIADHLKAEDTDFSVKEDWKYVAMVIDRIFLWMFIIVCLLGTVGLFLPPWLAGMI
assay.details: Tested for functional activity against neuronal nicotinic acetylcholine receptor(nAChR) expressed in K177 cells using isotopic rubidium efflux assay.
Parameter EC50: see the listing below.
property.name: EC50 (µM)

[
  {
    "record.smiles": "CN1CCC[C@H]1c1cc2ncccc2o1",
    "property.name": "EC50",
    "unit.label": "µM",
    "rel": "=",
    "numeric.value": 3.2
  },
  {
    "record.smiles": "CN1CCC[C@H]1COc1cccnc1",
    "property.name": "EC50",
    "unit.label": "µM",
    "rel": "=",
    "numeric.value": 0.75
  },
  {
    "record.smiles": "CN1CCC[C@@H]1c1cc2ncccc2o1",
    "property.name": "EC50",
    "unit.label": "µM",
    "rel": ">",
    "numeric.value": 1000
  },
  {
    "record.smiles": "Cc1cc([C@@H]2CCCN2C)on1",
    "property.name": "EC50",
    "unit.label": "µM",
    "rel": "=",
    "numeric.value": 10.6
  },
  {
    "record.smiles": "c1cnc2cc([C@H]3CCCN3)oc2c1",
    "property.name": "EC50",
    "unit.label": "µM",
    "rel": "=",
    "numeric.value": 11
  }
]
